// reported melting point for each item listed

CC1(O)OC(=O)C(c2c(F)cc(F)cc2F)=C1c1ccc2ccccc2c1 (stereo unspecified) ... 164 to 165 °C
COc1ccc(CN2CC(NC(=O)c3ccc(OCC=C(C)CCC=C(C)C)cc3)CN2Cc2ccc(OC)cc2)cc1 ... 123 to 124 °C
Cc1c(NC(=O)c2ccc(OCCCC(F)(F)F)cc2F)ccc2cc(CN3CCCC3)cnc12 ... 148 °C
CC(C)COC(=O)Nc1ccc(Br)cc1 ... 95 to 96 °C
CN(C)CCCNCC(O)C(O)C(O)C(O)CO (stereo unspecified) ... 107 to 108 °C
CC(C)N[C@@H](Cc1ccccc1)C(=O)N1CCN(C(c2ccc(F)cc2)c2ccc(F)cc2)CC1 ... 45 to 58 °C
CNC(=O)N1CC(Oc2ccccc2Cl)C1 ... 130 to 132 °C
CCCCCCCCCCCCCCCCOc1ccc(-c2nc(CC(=O)O)c(Oc3ccc(Cl)cc3)o2)cc1 ... 76 to 77 °C

Q: Give its melting point value. Item: COc1ccc(C(=Nc2c(Cl)cncc2Cl)NCc2ccccc2)cc1OC1CCCC1
Ans: 129 to 133 °C

Q: Requested read-out: melting point. Entry: N#CCc1ccc2oc3ncccc3c(=O)c2c1
Ans: 198 to 201 °C

Q: Consider the compound CCCCCCCCCCCCCCCCCCC1CNc2ccc(C(=O)O)cc21 (racemic) and give its measured melting point.
Ans: 84 to 87 °C

Q: Consider the compound COC(=O)C=Cc1cc2ccccc2o1 and give its measured melting point.
Ans: 84 to 86 °C

###

Form field: melting point (one value per entry).
Only the number, expressed in °C, is required.

COC1(C)C(=O)C(c2ccccc2)=C1c1ccc(S(C)(=O)=O)cc1 (stereo not given) ... 145
CCCCc1nc(S(=O)CC)c(C(=O)O)n1Cc1ccc(-c2ccccc2C(=O)O)cc1 (stereo not given) ... 186

Proceeding to the next molecule to report its melting point.
Q: // melting point lookup, key: CCCCNc1cc(C(=O)O)cc(S(N)(=O)=O)c1Oc1ccc(S(N)(=O)=O)cc1
Ans: 265

###

This listing pairs compounds with measured melting point.

CCNC(=O)c1c(Cl)cccc1[Si](C)(C)CBr ... 98 to 99 °C
Cc1ccc2c(c1)N=Cc1cccc3c1N2CC3 ... 77 to 78 °C
CCn1ncnc1COc1nn2c(-c3ccc(F)cc3F)nncc2c1C(C)(C)C ... 145 °C
C=C1COc2ccc(C(=O)OC)cc2C(Cc2ccccc2)(S(=O)(=O)c2ccccc2)C1 (stereo not given) ... 164 to 165 °C

Q: Requested field: melting point. Item: CCN(CC)CC(=O)Nc1ccc(C2=NN=C(C)Cc3cc4c(cc32)OCO4)cc1
Ans: 157 to 158 °C

###

Items are presented alongside their recorded melting point.

Worked cases, melting point given:
NC(=O)c1ncn2c1[C@@H]1CCN1C(=O)c1c-2ccc(F)c1Cl ... 296 to 298 °C
CC(C)N(C(=O)CN1C(=O)C(Cc2n[nH]c3ccccc23)C(=O)N(c2ccccc2)c2ccccc21)c1ccc(C(F)(F)F)cc1 (stereo not given) ... 145 to 148 °C
C1C2CC3CC1CC(C2)C3=C1C2CC3CC(C2)CC1C3 ... 185 to 186 °C
COC=C(C(=O)OC)c1cnc(C)nc1Oc1cccc(C(F)(F)F)c1 ... 100 to 102 °C
CCc1noc2cc(-c3ccccc3)n(C)c(=O)c12 ... 167 to 169 °C
COc1cc(C(C)O)c(O)cc1OCCCN1CCC(c2noc3cc(F)ccc23)CC1 (stereo not given) ... 156 to 158 °C
COc1ccc(COc2cncc3c2C(=O)c2c(NCCN(C)C)ccc(Cl)c2C3=O)cc1 ... 127 to 128 °C
Clc1cccc(OCCBr)c1Cl ... 51 to 56 °C
CCOC(=O)c1cc(=O)c2cc3c(c(CC4CO4)c2o1)CCCC3 (stereo not given) ... 138 to 140 °C

Q: Can you share its melting point? I mean this molecule: C=C(C)c1ccccc1N1CCN(C(=O)Nc2cc(C)c(C)nc2OC)CC1
Ans: 139 to 140 °C
